tested on: HSC2 (primary human Schwann cells); assay: drug sensitivity score (DSS, CellTiter-Glo viability, 72 h) (DSS (dimensionless)); higher = more sensitive; extreme values may be limits of the assay
Record form. Attribute: drug sensitivity score. Fill in for each entry.
One number for each entry.

COc1cc(Nc2ncc3c(n2)-c2ccc(Cl)cc2C(c2c(F)cccc2OC)=NC3)ccc1C(=O)O [Alisertib] (max concentration tested 10000 nM) : 17.5
CC(C)NC[C@@H](C(=O)N1CCN(c2ncnc3c2[C@H](C)C[C@H]3O)CC1)c1ccc(Cl)cc1 [GDC-0068] (max concentration tested 10000 nM) : 0
O=C(O)C1(C(=O)O)CCC1.[NH2-].[NH2-].[Pt+2] [Carboplatin aq] (max concentration tested 100000 nM) : 8.82
COc1ccc(S(=O)(=O)Nc2cccnc2Nc2ccc(O)cc2)cc1 [ABT-751] (max concentration tested 10000 nM) : 13.5
C[C@]1(O)C[C@@H](c2nc(-c3ccc4ccc(-c5ccccc5)nc4c3)c3c(N)nccn32)C1 [Linsitinib] (max concentration tested 10000 nM) : 0

Task: Query (compound): CN1CC[C@H](c2c(O)cc(O)c3c(=O)cc(-c4ccccc4Cl)oc23)[C@H](O)C1 [Alvocidib] (max concentration tested 10000 nM) ; field requested: drug sensitivity score
Result: 17.9
